- Test system: 292921-168-R-J2-PDC KRAS tumor spheroid viability
- assay.comment: Anticancer human tumor 292921-168-R-J2-PDC patient-derived pancreatic carcinoma cell line growth inhibition [KRAS2]
- test.context: second compound 0.1 µM; first compound 3.16 µM; active compounds read low; spheroids with HUVEC and MSC
Lab note: compare viability, T/C with 20%, writing Met if less and Not met if equal or more.

Below, 5 compounds whose answers are already recorded.
compound="CCNC(=O)CC1N=C(c2ccc(Cl)cc2)c2cc(OC)ccc2-n2c(C)nnc21 (stereo not given) + CC1OCC2(CCN(c3cnc(Sc4ccnc(N)c4Cl)c(N)n3)CC2)C1N" cat="Not met"
compound="CC(C)NCC(C(=O)N1CCN(c2ncnc3c2C(C)CC3O)CC1)c1ccc(Cl)cc1 (stereo not given) + COc1cc2nc(C)nc(NC(C)c3cc(N)cc(C(F)(F)F)c3)c2cc1OC1CCOC1" cat="Not met"
compound="CC(=O)OC12COC1CC(O)C1(C)C(=O)C(O)C3=C(C)C(OC(=O)C(O)C(NC(=O)OC(C)(C)C)c4ccccc4)CC(O)(C(OC(=O)c4ccccc4)C21)C3(C)C (stereo not given) + C=CC(=O)N1CCN(c2nc(=O)n(-c3c(C)ccnc3C(C)C)c3nc(-c4c(O)cccc4F)c(F)cc23)C(C)C1" cat=Met
compound="COc1cc(Nc2ncc3c(n2)-c2ccc(Cl)cc2C(c2c(F)cccc2OC)=NC3)ccc1C(=O)O + COc1cc2nc(C)nc(NC(C)c3cc(N)cc(C(F)(F)F)c3)c2cc1OC1CCOC1" cat=Met
compound="Cn1nccc1Nc1nccc(-c2cc3c(s2)C(C)(C)N(CCN2CCOCC2)C3=O)n1 + CC1OCC2(CCN(c3cnc(Sc4ccnc(N)c4Cl)c(N)n3)CC2)C1N" cat=Met

Threshold test, viability, T/C < 20%: COc1cc(Nc2ncc3c(n2)-c2ccc(Cl)cc2C(c2c(F)cccc2OC)=NC3)ccc1C(=O)O + C=CC(=O)N1CCN(c2nc(OCC3CCCN3C)nc3c2CCN(c2cccc4cccc(C)c24)C3)CC1CC#N
Not met

Threshold test, viability, T/C < 20%: COC(=O)c1ccc2c(C(=Nc3ccc(N(C)C(=O)CN4CCN(C)CC4)cc3)c3ccccc3)c(O)[nH]c2c1 + CC1OCC2(CCN(c3cnc(Sc4ccnc(N)c4Cl)c(N)n3)CC2)C1N
Met

Threshold test, viability, T/C < 20%: Cn1nccc1Nc1nccc(-c2cc3c(s2)C(C)(C)N(CCN2CCOCC2)C3=O)n1 + C=CC(=O)N1CCN(c2nc(=O)n(-c3c(C)ccnc3C(C)C)c3nc(-c4c(O)cccc4F)c(F)cc23)C(C)C1
Met

Threshold test, viability, T/C < 20%: CC1(C)CCC(CN2CCN(c3ccc(C(=O)NS(=O)(=O)c4ccc(NCC5CCOCC5)c([N+](=O)[O-])c4)c(Oc4cnc5[nH]ccc5c4)c3)CC2)=C(c2ccc(Cl)cc2)C1 + COc1cc2nc(C)nc(NC(C)c3cc(N)cc(C(F)(F)F)c3)c2cc1OC1CCOC1
Not met

Threshold test, viability, T/C < 20%: CC1COCCN1c1cc(-c2ccnn2C)c2ccnc(-c3ccn[nH]3)c2n1 (stereo not given) + CNCc1ccccc1-c1csc(C(C)Nc2nc(C)nc3cc(OC)c(OC)cc23)c1
Met

* * *

- Test system: 292921-168-R-J2-PDC KRAS tumor spheroid viability
- assay.comment: Anticancer human tumor 292921-168-R-J2-PDC cell line growth inhibition [KRAS2];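 further: drug exposure lasted seven days after spheroids formed for three days; percent of DMSO vehicle control viability which is 100%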
- test.context: second compound 0.1 µM; first compound 3.16 µM; active compounds read low; spheroids with HUVEC and MSC
- Description: Multicellular complex tumor spheroid response to RAS pathway inhibitors in combination with a targeted agents in patient-derived cell lines with oncogenic KRAS variants from multiple cancer types A high-throughput screen of multi-cell type tumor spheroids was designed to identify active combinations of targeted small molecules and KRAS pathway inhibitors. […] Compounds. […] If the clinical Cmax for an agent had not been determined, the highest concentration tested was 10 microM. […]
endpoint.label: viability, T/C (%)
# value in %; strip the unit string

molecule="Cn1nccc1Nc1nccc(-c2cc3c(s2)C(C)(C)N(CCN2CCOCC2)C3=O)n1 + CNCc1ccccc1-c1csc(C(C)Nc2nc(C)nc3cc(OC)c(OC)cc23)c1" assay_value=10.2
molecule="O=C(c1cc(Cc2n[nH]c(=O)c3ccccc23)ccc1F)N1CCN(C(=O)C2CC2)CC1 + CC1OCC2(CCN(c3cnc(Sc4ccnc(N)c4Cl)c(N)n3)CC2)C1N" assay_value=74.3

Fill in viability, T/C for record COc1cc(Nc2ncc3c(n2)-c2ccc(Cl)cc2C(c2c(F)cccc2OC)=NC3)ccc1C(=O)O + CNCc1ccccc1-c1csc(C(C)Nc2nc(C)nc3cc(OC)c(OC)cc23)c1
22.3
